assay: Cytotoxicity against human MDA-MB-231 cells after 72 hrs by MTT assay; assay type: functional, cell-based; conditions: MDA-MB-231, 72 h
Property Label: pIC50
Scale: pIC50 equals -log10([C]), with [C] in mol/L.

Known pIC50 results, listed for orientation:
- Molecular String: "O=S(=O)(Nc1cc(-c2ccc3nccc(-c4ccc(Cn5cncn5)cc4)c3c2)cnc1Cl)c1ccc(F)cc1F"
  Number: 6.47
- Molecular String: "COc1ncc(-c2ccc3nccc(-c4ccc(CN(C)CCO)cc4)c3c2)cc1NS(=O)(=O)c1ccc(F)cc1"
  Number: 6.68

Note to self: pIC50 recorded for "COc1ncc(-c2ccc3nccc(-c4ccc(Cn5cncn5)cc4)c3c2)cc1NS(=O)(=O)c1ccc(F)cc1" was 6.55

###

assay: Cmax in Sprague-Dawley rat at 2 mg/kg, iv by LCMS analysis; assay type: ADME, organism-based; parameters: dose 2 mg/kg, route intravenous; conditions: in vivo
Property Label: Cmax (ng/mL)
Only the number, expressed in ng/mL, is required.

Cmax for "COc1ncc(-c2ccc3nccc(-c4ccc(CN(C)C)cc4)c3c2)cc1NS(=O)(=O)c1ccc(F)cc1F" is 1000

###

target: Phosphatidylinositol 4,5-bisphosphate 3-kinase catalytic subunit alpha isoform (Homo sapiens, UniProt P42336); assay: Inhibition of PI3Kalpha (unknown origin) using PIP2 as substrate after 1 hr in presence of ATP by kinase-glo luminescence assay
Sequence (P42336 whole entry, canonical isoform): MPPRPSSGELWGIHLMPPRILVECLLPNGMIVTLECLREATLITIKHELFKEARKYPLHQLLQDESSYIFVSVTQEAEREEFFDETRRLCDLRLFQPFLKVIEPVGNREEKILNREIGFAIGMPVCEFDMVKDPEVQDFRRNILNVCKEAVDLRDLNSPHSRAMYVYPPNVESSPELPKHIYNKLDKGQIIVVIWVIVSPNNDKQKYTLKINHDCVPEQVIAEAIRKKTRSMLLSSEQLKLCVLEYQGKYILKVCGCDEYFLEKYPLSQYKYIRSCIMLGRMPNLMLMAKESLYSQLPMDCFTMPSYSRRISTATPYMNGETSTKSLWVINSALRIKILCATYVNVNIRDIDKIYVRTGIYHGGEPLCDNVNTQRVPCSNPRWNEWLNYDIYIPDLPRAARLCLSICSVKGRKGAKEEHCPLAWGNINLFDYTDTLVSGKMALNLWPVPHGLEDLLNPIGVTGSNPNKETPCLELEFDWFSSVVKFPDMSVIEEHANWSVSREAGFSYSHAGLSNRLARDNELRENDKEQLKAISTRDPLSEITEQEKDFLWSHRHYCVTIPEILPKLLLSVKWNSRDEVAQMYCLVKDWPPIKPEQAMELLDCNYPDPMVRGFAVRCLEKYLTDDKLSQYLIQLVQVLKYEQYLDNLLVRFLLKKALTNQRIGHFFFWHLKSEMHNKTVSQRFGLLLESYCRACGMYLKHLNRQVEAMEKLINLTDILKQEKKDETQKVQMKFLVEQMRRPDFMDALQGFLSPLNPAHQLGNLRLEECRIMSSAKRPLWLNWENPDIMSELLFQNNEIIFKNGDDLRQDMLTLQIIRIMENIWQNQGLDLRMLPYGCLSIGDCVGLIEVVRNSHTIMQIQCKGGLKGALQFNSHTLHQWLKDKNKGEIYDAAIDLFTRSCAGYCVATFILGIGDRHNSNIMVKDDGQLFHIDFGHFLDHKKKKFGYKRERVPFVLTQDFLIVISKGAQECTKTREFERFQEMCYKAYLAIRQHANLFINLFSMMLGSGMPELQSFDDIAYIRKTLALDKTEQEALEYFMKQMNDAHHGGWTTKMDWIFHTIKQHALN
Property Label: pIC50
Bear in mind: pIC50 is minus log10 of a mol/L concentration; give just that figure.

- Molecular String: "COc1ncc(-c2ccc3nccc(-c4ccc(CN(C)CCN(C)C)cc4)c3c2)cc1NS(=O)(=O)c1ccc(F)cc1F"
  pIC50: 8.60

--- query ---
Looking up "COc1ncc(-c2ccc3nccc(-c4ccc(CN5CCOCC5)cc4)c3c2)cc1NS(=O)(=O)c1ccc(F)cc1F" , I found its pIC50 recorded as 8.96

###

assay: Cytotoxicity against human A549 cells after 72 hrs by MTT assay; format: functional, cell-based; details: A549, 72 h
Listed next: entries and their corresponding pIC50.
FYI, pIC50 means -log10 of a concentration in mol per litre.

Solved entries:
- Molecule: "COc1ncc(-c2ccc3nccc(-c4ccc(Cn5ccnc5)cc4)c3c2)cc1NS(=O)(=O)c1ccc(F)cc1F"
  pIC50: 7.51
- Molecule: "COc1ncc(-c2ccc3nccc(-c4ccc(CN5CCOCC5)cc4)c3c2)cc1NS(=O)(=O)c1ccc(F)cc1"
  pIC50: 7.77
- Molecule: "CN(CCO)Cc1ccc(-c2ccnc3ccc(-c4cnc(Cl)c(NS(=O)(=O)c5ccc(F)cc5)c4)cc23)cc1"
  pIC50: 7.82

Entry "COc1ncc(-c2ccc3nccc(Cl)c3c2)cc1NS(=O)(=O)c1ccc(F)cc1F" — recorded pIC50 = 5.53

Documented pIC50 of "O=S(=O)(Nc1cc(-c2ccc3nccc(-c4ccc(Cn5cncn5)cc4)c3c2)cnc1Cl)c1ccc(F)cc1" : 6.75

###

# key: entry, value: pIC50
experiment: cells; details: Homo sapiens, HCT-116, 72 h
Scale: negative log10 of molar concentration, which is what pIC50 denotes.

- Molecule: "COc1ncc(-c2ccc3nccc(-c4ccc(Cn5cncn5)cc4)c3c2)cc1NS(=O)(=O)c1ccc(F)cc1F"
  pIC50: 8.06

# pIC50 (molecule: "CCN(Cc1ccc(-c2ccnc3ccc(-c4cnc(OC)c(NS(=O)(=O)c5ccc(F)cc5F)c4)cc23)cc1)C1CCCCC1" ) is 6.65

# molecule "COc1ncc(-c2ccc3nccc(-c4ccc(C)cc4)c3c2)cc1NS(=O)(=O)c1ccc(F)cc1F" ; its pIC50 = 5.60

// sample "COc1ncc(-c2ccc3nccc(-c4ccc(Cn5cncn5)cc4)c3c2)cc1NS(=O)(=O)c1ccc(F)cc1" , its pIC50 was 7.59

pIC50 reported for this molecule "COc1ncc(-c2ccc3nccc(-c4ccc(CN(C)CCO)cc4)c3c2)cc1NS(=O)(=O)c1ccc(F)cc1" : 7.60

For this molecule ( "CN(CCO)Cc1ccc(-c2ccnc3ccc(-c4cnc(Cl)c(NS(=O)(=O)c5ccc(F)cc5)c4)cc23)cc1" ), measured pIC50 is 7.62

###

experiment: Cytotoxicity against human HepG2 cells after 72 hrs by MTT assay; format: functional, cell-based; conditions: HepG2, 72 h
Property Label: pIC50
Interpret pIC50 as the negative base-10 log of the concentration measured in mol/L.

Here are 5 compounds together with their reported answers.
- Molecular String: "O=S(=O)(Nc1cc(-c2ccc3nccc(-c4ccc(CN5CCOCC5)cc4)c3c2)cnc1Cl)c1ccc(F)cc1F"
  pIC50: 5.64
- Molecular String: "COc1ncc(-c2ccc3nccc(-c4ccc(CN5CCOCC5)cc4)c3c2)cc1NS(=O)(=O)c1ccc(F)cc1"
  pIC50: 4.57
- Molecular String: "O=S(=O)(Nc1cc(-c2ccc3nccc(-c4ccc(CN5CCOCC5)cc4)c3c2)cnc1Cl)c1ccc(F)cc1"
  pIC50: 5.11
- Molecular String: "COc1ncc(-c2ccc3nccc(-c4ccc(CN(C)C)cc4)c3c2)cc1NS(=O)(=O)c1ccc(F)cc1"
  pIC50: 5.52
- Molecular String: "CN(CCO)Cc1ccc(-c2ccnc3ccc(-c4cnc(Cl)c(NS(=O)(=O)c5ccc(F)cc5)c4)cc23)cc1"
  pIC50: 5.72

Reported pIC50 for "O=S(=O)(Nc1cc(-c2ccc3nccc(-c4ccc(Cn5cncn5)cc4)c3c2)cnc1Cl)c1ccc(F)cc1" was 5.02

Value of measured pIC50 for the entry "CN(CCO)Cc1ccc(-c2ccnc3ccc(-c4cnc(Cl)c(NS(=O)(=O)c5ccc(F)cc5F)c4)cc23)cc1" : 5.54

Measured pIC50 of "COc1ncc(-c2ccc3nccc(-c4ccc(CN(C)CCO)cc4)c3c2)cc1NS(=O)(=O)c1ccc(F)cc1" : 5.73

Recorded result, "CN(C)Cc1ccc(-c2ccnc3ccc(-c4cnc(Cl)c(NS(=O)(=O)c5ccc(F)cc5F)c4)cc23)cc1" , pIC50: 5.41

Form field pIC50, entry "O=S(=O)(Nc1cc(-c2ccc3nccc(-c4ccc(Cn5cncn5)cc4)c3c2)cnc1Cl)c1ccc(F)cc1F" : 5.69

// pIC50 lookup, compound = "COc1ncc(-c2ccc3nccc(-c4ccc(Cn5cncn5)cc4)c3c2)cc1NS(=O)(=O)c1ccc(F)cc1" , result: 4.90

###

test: Cmax in Sprague-Dawley rat at 20 mg/kg administered via oral gavage as single dose by LCMS analysis; type: ADME, organism-based; parameters: dose 20 mg/kg, route oral; conditions: in vivo
Property Label: Cmax
Respond with a number, then the unit of measure.

Measured Cmax, "COc1ncc(-c2ccc3nccc(-c4ccc(CN(C)C)cc4)c3c2)cc1NS(=O)(=O)c1ccc(F)cc1F" : 7.12 µg/mL

###

assay: AUC (0 to infinity) in Sprague-Dawley rat at 2 mg/kg, iv by LCMS analysis; type: ADME, organism-based; design: dose 2 mg/kg, time infinity, route intravenous; conditions: in vivo
Property Label: AUC(0-inf)
Write the quantity with the unit trailing the number.

Note to self: AUC(0-inf) recorded for "COc1ncc(-c2ccc3nccc(-c4ccc(CN(C)C)cc4)c3c2)cc1NS(=O)(=O)c1ccc(F)cc1F" was 3740 ng·h/mL

###

test: Cytotoxicity against human MDA-MB-231 cells after 72 hrs by MTT assay; type: functional, cell-based; settings: MDA-MB-231, 72 h
Let's look at some compounds and their measured log10(IC50).
Hey, these are logged values: log10 of IC50, nM being the unit before logging.

Field: example entries. Status: answers known.
- Molecular String: "O=S(=O)(Nc1cc(-c2ccc3nccc(-c4ccc(CN5CCOCC5)cc4)c3c2)cnc1Cl)c1ccc(F)cc1F"
  Number: 3.38
- Molecular String: "CN(CCO)Cc1ccc(-c2ccnc3ccc(-c4cnc(Cl)c(NS(=O)(=O)c5ccc(F)cc5F)c4)cc23)cc1"
  Number: 2.53

Okay, next one:
Form field log10(IC50), entry "O=S(=O)(Nc1cc(-c2ccc3nccc(-c4ccc(Cn5cncn5)cc4)c3c2)cnc1Cl)c1ccc(F)cc1" : 2.36

###

assay: Cytotoxicity against human A549 cells after 72 hrs by MTT assay; type: functional, cell-based; settings: A549, 72 h
# Lookup of reported IC50 keyed by entry
Give your result in µM as a bare value.

Example compounds with recorded IC50:
- Compound: "O=S(=O)(Nc1cc(-c2ccc3nccc(-c4ccc(CN5CCOCC5)cc4)c3c2)cnc1Cl)c1ccc(F)cc1F"
  Quantity Unit: "µM"
  IC50: 0.024
- Compound: "COc1ncc(-c2ccc3nccc(-c4ccc(Cn5ccnc5C)cc4)c3c2)cc1NS(=O)(=O)c1ccc(F)cc1F"
  Quantity Unit: "µM"
  IC50: 0.0102
- Compound: "COc1ncc(-c2ccc3nccc(-c4ccc(CN(C)CCO)cc4)c3c2)cc1NS(=O)(=O)c1ccc(F)cc1F"
  Quantity Unit: "µM"
  IC50: 0.02
- Compound: "CN(CCO)Cc1ccc(-c2ccnc3ccc(-c4cnc(Cl)c(NS(=O)(=O)c5ccc(F)cc5F)c4)cc23)cc1"
  Quantity Unit: "µM"
  IC50: 0.121

The value of IC50 measured for the compound "CN(C)Cc1ccc(-c2ccnc3ccc(-c4cnc(Cl)c(NS(=O)(=O)c5ccc(F)cc5F)c4)cc23)cc1" turned out to be 0.251

Measured IC50 of "COc1ncc(-c2ccc3nccc(-c4ccc(CN5CCCC5)cc4)c3c2)cc1NS(=O)(=O)c1ccc(F)cc1F" : 0.0375

"COc1ncc(-c2ccc3nccc(-c4ccc(CN(C)C)cc4)c3c2)cc1NS(=O)(=O)c1ccc(F)cc1" yielded IC50 of 0.025

For this compound ( "COc1ncc(-c2ccc3nccc(-c4ccc(CN5CCCCC5)cc4)c3c2)cc1NS(=O)(=O)c1ccc(F)cc1F" ), measured IC50 is 0.0155

compound COc1ncc(-c2ccc3nccc(-c4ccnnc4)c3c2)cc1NS(=O)(=O)c1ccc(F)cc1F [OMIPALISIB] , IC50 observed: 0.14

IC50 measured on "COc1ncc(-c2ccc3nccc(-c4ccc(C)cc4)c3c2)cc1NS(=O)(=O)c1ccc(F)cc1F" = 1.24
